Tested on: biotinyl-Leu-oxazolone
protocol-summary: self-aminoacylation, catalytic enhancement (BLO) (fold over background); higher = more active; k-Seq, kA / k0A0; sequences stand for … in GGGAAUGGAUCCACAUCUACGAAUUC…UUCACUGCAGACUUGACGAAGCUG
Variants at the floor of the assay were thinned out.
Tick YES if self-aminoacylation is 2 or greater. Tick NO if self-aminoacylation is less than 2.

Previously resolved entries follow.
CUCCUUCAAACAAUCGGCCUG [Fam1A.1 aminoacylation ribozyme variant] : YES
AUUCACCUAGGGCAUCGGGUU [Fam2.2 aminoacylation ribozyme variant] : YES
AUUCACCUACGUCAUCGUGUG [Fam2.2 aminoacylation ribozyme variant] : NO
AUGCCCCUGGUCAUCGAGUGA [Fam2.1 aminoacylation ribozyme variant] : YES
AGUACCCUGGUCAUCGACUGA [Fam2.1 aminoacylation ribozyme variant] : NO

Q: Kindly determine if self-aminoacylation recorded for AAAUUUGCUAAUAGUCGCACG [Fam3.1 aminoacylation ribozyme variant] is above or exactly 2.
Result: NO

Q: Kindly determine if self-aminoacylation recorded for AUUACCCUGGUCAACGACUGA [Fam2.1 aminoacylation ribozyme variant] is above or exactly 2.
Result: NO

Q: Kindly determine if self-aminoacylation recorded for AUACACCUAGCUCAUCGGGUG [Fam2.2 aminoacylation ribozyme variant] is above or exactly 2.
Result: NO

Q: Kindly determine if self-aminoacylation recorded for AAGUUCGCAAAUAGUCGCAAG [Fam3.1 aminoacylation ribozyme variant] is above or exactly 2.
Result: YES

Q: Kindly determine if self-aminoacylation recorded for AAGCUUGCUAAAAGUCGCAAG [Fam3.1 aminoacylation ribozyme variant] is above or exactly 2.
Result: YES

Q: Kindly determine if self-aminoacylation recorded for AAGUUUGGUAAUAGUCGGAAG [Fam3.1 aminoacylation ribozyme variant] is above or exactly 2.
Result: NO

###

Tested on: biotinyl-Trp-oxazolone
protocol-summary: self-aminoacylation, catalytic enhancement (BWO) (fold over background); higher = more active; k-Seq, kA / k0A0; sequences stand for … in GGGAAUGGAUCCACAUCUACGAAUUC…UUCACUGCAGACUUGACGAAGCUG
This sample holds only a part of the variants without activity.
property-label: self-aminoacylation
// no unit, no text: just the number

Worked examples, 5 sequences total:
ACACUUCAAACAAUCGGUCUG [Fam1A.1 aminoacylation ribozyme variant] : 33.3
ACACACUUCCAGCAAUCGGUC [Fam1B.1 aminoacylation ribozyme variant] : 1.6
AUUACCCUGGUCAUGAAGUGA [Fam2.1 aminoacylation ribozyme variant] : 10.1
CCAGACUUCAAGCAAUCAGUC [Fam1B.1 aminoacylation ribozyme variant] : 5.08
AUUAACCUGGUCAUCGAGCGA [Fam2.1 aminoacylation ribozyme variant] : 1.37

Q: Given AUUCUCCUAUGUCAUCGGGUG [Fam2.2 aminoacylation ribozyme variant] , respond with its self-aminoacylation.
Result: 8.54

Q: Given UUACUUCAAACAAUCGCUCUG [Fam1A.1 aminoacylation ribozyme variant] , respond with its self-aminoacylation.
Result: 1.51

Q: Given GUACACCUAGGUCAUCGGGUG [Fam2.2 aminoacylation ribozyme variant] , respond with its self-aminoacylation.
Result: 4.08

###

Test system: biotinyl-Trp-oxazolone
protocol-summary: self-aminoacylation, catalytic enhancement (BWO) (fold over background); higher = more active; k-Seq, kA / k0A0; sequences stand for … in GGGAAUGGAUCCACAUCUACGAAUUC…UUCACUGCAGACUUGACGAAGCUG
This sample holds only a part of the variants without activity.
Tick yes (1) if self-aminoacylation is 1 or greater. Tick no (0) if self-aminoacylation is less than 1.

AUUACCCGGGUCAUCGAAUGA [Fam2.1 aminoacylation ribozyme variant] : no (0)

Q: Kindly determine if self-aminoacylation recorded for AUUAACCUAGGUCAUCGAGUG [Fam2.2 aminoacylation ribozyme variant] is above or exactly 1.
Result: yes (1)

Q: Kindly determine if self-aminoacylation recorded for AUUCACCUAGGUCAUCAAGUG [Fam2.2 aminoacylation ribozyme variant] is above or exactly 1.
Result: no (0)

Q: Kindly determine if self-aminoacylation recorded for CUACUUCAAAGAAUCGGUCUC [Fam1A.1 aminoacylation ribozyme variant] is above or exactly 1.
Result: yes (1)

Q: Kindly determine if self-aminoacylation recorded for ACUACCCAGGUCAUCGAGUGA [Fam2.1 aminoacylation ribozyme variant] is above or exactly 1.
Result: yes (1)

Q: Kindly determine if self-aminoacylation recorded for CUACUCCAAACAAUCGGGCUG [Fam1A.1 aminoacylation ribozyme variant] is above or exactly 1.
Result: yes (1)

Q: Kindly determine if self-aminoacylation recorded for AUUACCCUGGUCAUCCAGGGA [Fam2.1 aminoacylation ribozyme variant] is above or exactly 1.
Result: yes (1)

Q: Kindly determine if self-aminoacylation recorded for AGGUUUGCUAAUAGUCGCAAC [Fam3.1 aminoacylation ribozyme variant] is above or exactly 1.
Result: yes (1)

Q: Kindly determine if self-aminoacylation recorded for CUUCACCUAGGUAAUCGGGUG [Fam2.2 aminoacylation ribozyme variant] is above or exactly 1.
Result: yes (1)

Q: Kindly determine if self-aminoacylation recorded for CUUAUUCAAACAAUCGGUCUG [Fam1A.1 aminoacylation ribozyme variant] is above or exactly 1.
Result: yes (1)

###

Tested on: biotinyl-Leu-oxazolone
protocol-summary: self-aminoacylation, catalytic enhancement (BLO) (fold over background); higher = more active; k-Seq, kA / k0A0; sequences stand for … in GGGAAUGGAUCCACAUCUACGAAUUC…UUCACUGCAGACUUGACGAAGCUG
This sample holds only a part of the variants without activity.
property-label: self-aminoacylation

Worked examples, 8 sequences total:
AUUCACCUAGUUCAUCGGGUC [Fam2.2 aminoacylation ribozyme variant] : 0.903
AGUCCCCUGGUCAUCGAGUGA [Fam2.1 aminoacylation ribozyme variant] : 6.55
AGUCAGCUAGGUCAUCGGGUG [Fam2.2 aminoacylation ribozyme variant] : 6.1
AUUACCCAGGUCAUCGAGUGC [Fam2.1 aminoacylation ribozyme variant] : 0.919
CUUACCCUGGUGAUCGAGUGA [Fam2.1 aminoacylation ribozyme variant] : 4.36
CCACACGUCAAGCACUCGGUC [Fam1B.1 aminoacylation ribozyme variant] : 1.23
AGUCACCUAGGUCAUCGGGUG [Fam2.2 aminoacylation ribozyme variant] : 6.74
AUUACCCUGGUCAUCUUGUGA [Fam2.1 aminoacylation ribozyme variant] : 4.41

Q: Given CUACUUCAAGCCAUCGGUCUG [Fam1A.1 aminoacylation ribozyme variant] , respond with its self-aminoacylation.
Result: 1.15

Q: Given AAGUUUGCUAAUUGUCUCAAG [Fam3.1 aminoacylation ribozyme variant] , respond with its self-aminoacylation.
Result: 0.852

Q: Given CUACUUCAAACUAUCGGUAUG [Fam1A.1 aminoacylation ribozyme variant] , respond with its self-aminoacylation.
Result: 0.601

Q: Given AAGGUUGCUAAUGGUCGCAAG [Fam3.1 aminoacylation ribozyme variant] , respond with its self-aminoacylation.
Result: 0.828

Q: Given AUUACGCUGGUGAUCGAGUGA [Fam2.1 aminoacylation ribozyme variant] , respond with its self-aminoacylation.
Result: 5.37

Q: Given CCACACAUCUAGCAAUCGGUC [Fam1B.1 aminoacylation ribozyme variant] , respond with its self-aminoacylation.
Result: 0.712

Q: Given CCACACUUCAAGCAAUAGGCC [Fam1B.1 aminoacylation ribozyme variant] , respond with its self-aminoacylation.
Result: 1.05

Q: Given AUUACCCUGGUCACCGAGUGC [Fam2.1 aminoacylation ribozyme variant] , respond with its self-aminoacylation.
Result: 2.61

###

Tested on: biotinyl-Phe-oxazolone
protocol-summary: self-aminoacylation, catalytic enhancement (BFO) (fold over background); higher = more active; k-Seq, kA / k0A0; sequences stand for … in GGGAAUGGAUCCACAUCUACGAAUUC…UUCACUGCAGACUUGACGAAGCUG
Variants at the floor of the assay were thinned out.
Tick True if self-aminoacylation is 5 or greater. Tick False if self-aminoacylation is less than 5.

Q: Kindly determine if self-aminoacylation recorded for AUUACCCUGGCCAUCGAGUGG [Fam2.1 aminoacylation ribozyme variant] is above or exactly 5.
Result: False

Q: Kindly determine if self-aminoacylation recorded for UUUCACCUAGGUCAUCGGCUG [Fam2.2 aminoacylation ribozyme variant] is above or exactly 5.
Result: True

Q: Kindly determine if self-aminoacylation recorded for CUACUUCAAACAAGCGGUCUA [Fam1A.1 aminoacylation ribozyme variant] is above or exactly 5.
Result: False

Q: Kindly determine if self-aminoacylation recorded for CAACACUUCAGGCAAUCGGUC [Fam1B.1 aminoacylation ribozyme variant] is above or exactly 5.
Result: False

Q: Kindly determine if self-aminoacylation recorded for AUCACCCUUGUCAUCGAGUGA [Fam2.1 aminoacylation ribozyme variant] is above or exactly 5.
Result: True

Q: Kindly determine if self-aminoacylation recorded for AUCACCCUGGUGAUCGAGUGA [Fam2.1 aminoacylation ribozyme variant] is above or exactly 5.
Result: True

Q: Kindly determine if self-aminoacylation recorded for AUUAACCUAGGUCGUCGGGUG [Fam2.2 aminoacylation ribozyme variant] is above or exactly 5.
Result: False

Q: Kindly determine if self-aminoacylation recorded for CCACACCUCAAGCGAUCGGUC [Fam1B.1 aminoacylation ribozyme variant] is above or exactly 5.
Result: False

Q: Kindly determine if self-aminoacylation recorded for UAGUAUGCUAAUAGUCGCAAG [Fam3.1 aminoacylation ribozyme variant] is above or exactly 5.
Result: False

Q: Kindly determine if self-aminoacylation recorded for AUCACCCUGGUCCUCGAGUGA [Fam2.1 aminoacylation ribozyme variant] is above or exactly 5.
Result: True

Data provenance: the supplement of paper PMC9233669
